Source of measurements: ChEMBL document CHEMBL1833814

Target: Cytochrome P450 2C19 (Homo sapiens)
Sequence (P33261 whole entry): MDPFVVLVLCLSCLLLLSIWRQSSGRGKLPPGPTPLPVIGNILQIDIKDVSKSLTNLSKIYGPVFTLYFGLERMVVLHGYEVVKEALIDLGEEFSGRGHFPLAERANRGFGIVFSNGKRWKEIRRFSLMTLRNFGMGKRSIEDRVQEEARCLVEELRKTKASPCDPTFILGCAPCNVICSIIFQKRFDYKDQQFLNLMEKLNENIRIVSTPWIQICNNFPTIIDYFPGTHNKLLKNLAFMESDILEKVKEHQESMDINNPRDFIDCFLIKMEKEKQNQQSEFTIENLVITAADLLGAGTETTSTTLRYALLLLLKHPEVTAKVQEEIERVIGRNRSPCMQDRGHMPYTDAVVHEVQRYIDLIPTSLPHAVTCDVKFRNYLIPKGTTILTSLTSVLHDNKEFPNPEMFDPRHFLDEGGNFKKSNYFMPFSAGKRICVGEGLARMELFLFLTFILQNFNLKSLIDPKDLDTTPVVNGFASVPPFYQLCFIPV
testReadout: IC50

structureSmiles: CCC(=O)N[C@H]1CC[C@@H](C(=O)N(C)c2ccc(-c3nc4ccccc4o3)cc2)C1
experimentalValue: > 10 µM

====

Assay: Drug level in Han/Wistar rat brain at 4 mg/kg, po after 2 hrs
Format: ADME, organism-based
Parameters: dose 4 mg/kg, route oral
Settings: read-out: Drug uptake

structureSmiles: CCC(=O)N[C@H]1CC[C@@H](C(=O)N(C)c2ccc(-c3nc4ccccc4o3)cc2)C1
resultUnits: nM
concentration at 2 h: 1300

====

Assay: Tmax in Han/Wistar rat at 4 mg/kg, po
Assay type: ADME, organism-based
Parameters: dose 4 mg/kg, route oral
Details: in vivo

structureSmiles: CCC(=O)N[C@H]1CC[C@@H](C(=O)N(C)c2ccc(-c3nc4ccccc4o3)cc2)C1
Tmax [min]: 30
